The entries below come with measured pKi values attached.
system.under.test: GABA-A receptor; anion channel
procedure.text: Displacement of [3H]muscimol from GABAA receptor in rat brain synaptic membranes
// field semantics: pKi = negative decimal log of concentration (mol/L)

NCCc1nonc1O | 4.89

Query compound follows.
Please report the recorded pKi for `NCCCc1nonc1O` .
4.57

----------
system.under.test: GABA-A receptor; anion channel
procedure.text: Displacement of [3H]muscimol from GABAA receptor in rat brain synaptic membranes
reported.endpoint: IC50

Given the entry `NCCCCc1nonc1O` , report its measured IC50.
> 100 µM
